# target.desc: Disintegrin and metalloproteinase domain-containing protein 10 (Homo sapiens, UniProt O14672)
# assay.remarks: ADAM10 inhibitors, peptide cleavage, dose response, biochemical, QFRET (AID 743254)
Below: a set of entries, each annotated with reported pIC50.
Reminder that pIC50 means the negative base-10 logarithm of the concentration expressed in mol/L.

Below are worked cases with known answers.
>  <compound>
O=C(CC1CCCCC1)Nc1nc[nH]n1

>  <pIC50>
4.16

$$$$
>  <compound>
COc1ccc(C=CC(=O)c2c(O)n(CCC3=CCCCC3)c(=O)[nH]c2=O)cc1OC [SMR000221147]

>  <pIC50>
4.16

$$$$

Enquiry: Give the value of pIC50 reported for the following: COc1cc(OC)c(C2C3=C(CC(C)(C)CC3=O)OC(=N)C2C#N)cc1OC (centres undefined) [SMR000054706]
Return: 5.06

Enquiry: Give the value of pIC50 reported for the following: COc1cc(CN=O)cc(Br)c1OCc1ccc(Cl)cc1
Return: 4.16

Enquiry: Give the value of pIC50 reported for the following: O=C1OCCN1C(=O)C1=[N+](c2ccc(Br)cc2)N[C-](c2cccc(Cl)c2)[C@H]1c1ccc([N+](=O)[O-])cc1 [MLS000517955]
Return: 4.67

Enquiry: Give the value of pIC50 reported for the following: Oc1cc(N(CCc2ccccc2)C(=S)Nc2cc(Cl)ccc2Cl)c(O)n1-c1c(Cl)cccc1Cl
Return: 4.16

Enquiry: Give the value of pIC50 reported for the following: COc1ccc(N2C(=O)NC(=O)C(=Cc3c[nH]c4ccc(Br)cc34)C2=O)c(OC)c1
Return: 5.26

Enquiry: Give the value of pIC50 reported for the following: Cc1cccc(S(=O)(=O)C(C#N)c2nc3ccccc3nc2N2CCOCC2)c1 (centres undefined)
Return: 4.16

Enquiry: Give the value of pIC50 reported for the following: Cc1cccc(Oc2nc(-c3ccccn3)nc3ccccc23)c1 [2-Pyridin-2-yl-4-m-tolyloxy-quinazoline]
Return: 4.16

* * *

# target.desc: Disintegrin and metalloproteinase domain-containing protein 10 (Homo sapiens, UniProt O14672)
# assay.remarks: ADAM10 inhibitors, peptide cleavage, dose response, biochemical, QFRET (AID 743254)
reported.metric: pIC50
Reminder that pIC50 means the negative base-10 logarithm of the concentration expressed in mol/L.

Below are worked cases with known answers.
>  <molecule>
O=C(Cn1cncn1)NN=Cc1c2ccccc2cc2ccccc12

>  <recorded.result>
4.16

$$$$
>  <molecule>
CC(/C=C1\N=C(SCc2ccccc2Cl)SC1=O)=C\c1ccccc1

>  <recorded.result>
4.92

$$$$
>  <molecule>
O=C1C=CC([N+](=O)[O-])=CC1CN=Nc1ccccn1 (stereo unspecified)

>  <recorded.result>
4.56

$$$$
>  <molecule>
CN1C(=O)C(=CNCCCCCCCCCCC(=O)O)C(=O)N(C)C1=O

>  <recorded.result>
4.88

$$$$

Enquiry: Give the value of pIC50 reported for the following: CSc1nsc2nc(=O)c(/C=C3\C=Nc4ccccc43)c(N)n12
Return: 5.13

Enquiry: Give the value of pIC50 reported for the following: O=c1[nH][nH]c2cc(=O)n(-c3ccc(Cl)cc3)nc12
Return: 5.00

* * *

# target.desc: Disintegrin and metalloproteinase domain-containing protein 10 (Homo sapiens, UniProt O14672)
# Sequence (O14672 whole entry): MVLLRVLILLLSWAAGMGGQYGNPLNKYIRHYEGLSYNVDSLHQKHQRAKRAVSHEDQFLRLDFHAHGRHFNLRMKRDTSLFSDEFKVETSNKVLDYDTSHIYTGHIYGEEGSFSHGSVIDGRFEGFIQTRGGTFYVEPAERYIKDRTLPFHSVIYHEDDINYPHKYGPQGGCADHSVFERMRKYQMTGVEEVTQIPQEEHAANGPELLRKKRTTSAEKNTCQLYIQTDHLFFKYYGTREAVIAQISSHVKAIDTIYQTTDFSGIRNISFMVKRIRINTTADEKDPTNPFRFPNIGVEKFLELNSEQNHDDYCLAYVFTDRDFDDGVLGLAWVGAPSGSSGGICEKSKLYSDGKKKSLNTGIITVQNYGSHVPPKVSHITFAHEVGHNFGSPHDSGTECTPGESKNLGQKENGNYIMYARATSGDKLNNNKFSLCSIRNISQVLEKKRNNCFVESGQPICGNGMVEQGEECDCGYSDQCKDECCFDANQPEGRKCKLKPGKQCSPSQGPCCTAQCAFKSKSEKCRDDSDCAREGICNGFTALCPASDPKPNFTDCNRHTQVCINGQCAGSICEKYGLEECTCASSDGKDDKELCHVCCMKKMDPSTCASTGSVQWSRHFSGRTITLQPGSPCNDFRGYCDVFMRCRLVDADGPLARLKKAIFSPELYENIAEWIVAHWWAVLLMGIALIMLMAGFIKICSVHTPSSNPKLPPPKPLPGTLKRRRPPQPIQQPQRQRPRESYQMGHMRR
# assay.remarks: ADAM10 inhibitors, peptide cleavage, dose response, biochemical, QFRET (AID 743254)
reported.metric: pIC50
Reminder that pIC50 means the negative base-10 logarithm of the concentration expressed in mol/L.

Below are worked cases with known answers.
>  <compound>
Cn1nc(-c2ccccn2)nc2c(=O)n(C)c(=O)nc1-2

>  <pIC50>
4.16

$$$$
>  <compound>
COC(=O)CCCC1=CC2=CC(=O)C(C)(OC(=O)C3CCCC3)C(=O)C2=CO1 (configuration not stated)

>  <pIC50>
5.14

$$$$
>  <compound>
C(=CN=Nc1nc2ccccc2s1)Cc1ccccc1

>  <pIC50>
4.16

$$$$

Enquiry: Give the value of pIC50 reported for the following: Cc1ccc(OCC(=O)Nc2nnc[nH]2)c(Br)c1
Return: 5.13

Enquiry: Give the value of pIC50 reported for the following: COc1ccc(N=C(C)c2sc3ccccc3c2O)cc1
Return: 4.62
